Source: patent US20250353873A1

Examples of substances with documented APOE RNA (% UTC) follow.
- Tested on: human APOE RNA
- EXPERIMENTAL PROTOCOL: Dose-dependent inhibition of human APOE RNA in HepG2 cells, electroporation, 24 hours (Example 6)
- Format: cell-based
- RUN CONDITIONS: 512 nM
Strand notation (5' to 3'): a small letter for the sugar, then the base; units joined by * are phosphorothioate-linked, units joined directly phosphodiester-linked; [ ] holds rarer units or linkages, { } end groups; capitals alone tell only the bases. [ms] = mesyl phosphoramidate linkage; e = 2'-O-(2-methoxyethyl) (MOE); k = constrained ethyl (cEt); [5mC] = 5-methylcytosine; d = 2'-deoxy (DNA)
Report only the number, with the unit % UTC understood.

Check out these entries, answers already filled in.
SUBSTANCE	APOE RNA (% UTC)
1736526: 6-10-4 MOE gapmer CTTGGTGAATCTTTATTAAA, linkages ssoooszzsssssssssss (e[5mC]*eT*eTeGeGeT*dG[ms]dA[ms]dA*dT*d[5mC]*dT*dT*dT*dA*dT*eT*eA*eA*eA) [compound 1736526]	51
1736534 (e[5mC]*eT*eT*eG*eGeT*dG[ms]dA[ms]dA[ms]dT*d[5mC]*dT*dT*dT*dA[ms]dT*kT*kA*eA*eA; antisense) [Compound 1736534]	50

Let us examine a further case.
(Q) Name the recorded APOE RNA (% UTC) of the substance listed here: 1736533 (e[5mC]*eT*eT*eG*eGeT*dG[ms]dA[ms]dA[ms]dT*d[5mC]*dT*dT*dT*dA[ms]dT*kT*eA*eA*eA; antisense) [Compound 1736533]
(A) 50

----------
- Test system: human APOE RNA
- EXPERIMENTAL PROTOCOL: Activity in APOE C57BL/6NTac-Apoeem7250 knock-in mice, single ICV bolus, 8 weeks (Example 11)
- Type: in vivo
- RUN CONDITIONS: spinal cord; single ICV bolus 300 μg; 8 weeks post treatment; normalized to mouse Ppia
Strand notation (5' to 3'): a small letter for the sugar, then the base; units joined by * are phosphorothioate-linked, units joined directly phosphodiester-linked; [ ] holds rarer units or linkages, { } end groups; capitals alone tell only the bases. [ms] = mesyl phosphoramidate linkage; e = 2'-O-(2-methoxyethyl) (MOE); k = constrained ethyl (cEt); [5mC] = 5-methylcytosine; d = 2'-deoxy (DNA)
# strict inequality: APOE RNA (% control) Spinal Cord < 30 % control yields Yes, everything else yields No

SUBSTANCE	TEST SYSTEM	CLASSIFICATION
1693039: 5-10-5 MOE gapmer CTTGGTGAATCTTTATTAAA, linkages sssosszzzssssssooss (antisense e[5mC]*eT*eT*eGeG*dT*dG[ms]dA[ms]dA[ms]dT*d[5mC]*dT*dT*dT*dA*eTeTeA*eA*eA) [compound 1693039]	human APOE RNA	No
1809744: mixed MOE/cEt gapmer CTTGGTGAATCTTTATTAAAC, sugar eeeekkddddddddddeeeee, linkages zsoooszzsssssszsoosz (e[5mC][ms]eT*eTeGkGkT*dG[ms]dA[ms]dA*dT*d[5mC]*dT*dT*dT*dA[ms]dT*eTeAeA*eA[ms]e[5mC]) [compound 1809744]	human APOE RNA	Yes
1652907: 5-10-5 MOE gapmer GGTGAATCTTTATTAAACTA, linkages soooszzssssssssooss (antisense eG*eGeTeGeA*dA[ms]dT[ms]d[5mC]*dT*dT*dT*dA*dT*dT*dA*eAeAe[5mC]*eT*eA) [compound 1652907]	human APOE RNA	Yes

(Q) Consider 1785617: modified oligonucleotide complementary to human APOE RNA (k[5mC]*dT[ms]dT[ms]kG*dG[ms]kT*dG[ms]dA[ms]dA[ms]dT[ms]d[5mC]*dT*dT*dT*dA*dT*kT*kA*dA[ms]kA; antisense) [compound 1785617] . Does its APOE RNA (% control) Spinal Cord lie strictly below 30 % control?
(A) No

(Q) Consider 1785599: modified oligonucleotide complementary to human APOE RNA (k[5mC]*kT*kT*dG[ms]dG[ms]dT[ms]dG[ms]dA[ms]dA[ms]dT[ms]d[5mC]*dT*dT*dT*dA*dT*kT*kA*dA[ms]kA; antisense) [compound 1785599] . Does its APOE RNA (% control) Spinal Cord lie strictly below 30 % control?
(A) No

----------
Examples of substances with documented APOE RNA (% control) Cortex follow.
- Tested on: human APOE RNA
- EXPERIMENTAL PROTOCOL: Activity in APOE C57BL/6NTac-Apoeem7250 knock-in mice, single ICV bolus, 20 weeks (Example 13)
- Assay type: in vivo
- RUN CONDITIONS: cortex; single ICV bolus 300 μg; 20 weeks post treatment; normalized to mouse Ppia
Strand notation (5' to 3'): a small letter for the sugar, then the base; units joined by * are phosphorothioate-linked, units joined directly phosphodiester-linked; [ ] holds rarer units or linkages, { } end groups; capitals alone tell only the bases. [ms] = mesyl phosphoramidate linkage; e = 2'-O-(2-methoxyethyl) (MOE); k = constrained ethyl (cEt); [5mC] = 5-methylcytosine; d = 2'-deoxy (DNA)
Report only the number, with the unit % control understood.

SUBSTANCE	TEST SYSTEM	READING
1778129: modified oligonucleotide complementary to human APOE RNA (eA*e[5mC]eTeTeG*kG*dT*dG[ms]dA[ms]dA*dT*d[5mC]*dT*dT*dT*dA[ms]kT*kT*eA*eA; antisense) [compound 1778129]	human APOE RNA	52

(Q) Name the recorded APOE RNA (% control) Cortex of the substance listed here: 1778117 (eA*e[5mC]eTeTeG*eG*dT*dG[ms]dA[ms]dA*dT*d[5mC]*dT*dT*dT*dA[ms]kT*eT*eA*eA; antisense) [Compound 1778117]
(A) 72

(Q) Name the recorded APOE RNA (% control) Cortex of the substance listed here: 1785601: modified oligonucleotide complementary to human APOE RNA (k[5mC]*kT*kT*dG[ms]dG[ms]dT[ms]dG*dA[ms]dA[ms]dT*d[5mC]*dT*dT*dT*dA[ms]dT*kT*kA*dA[ms]kA; antisense) [compound 1785601]
(A) 43

(Q) Name the recorded APOE RNA (% control) Cortex of the substance listed here: 1785598: modified oligonucleotide complementary to human APOE RNA (k[5mC]*kT*kT*dG[ms]dG[ms]dT[ms]dG[ms]dA[ms]dA[ms]dT*d[5mC]*dT*dT*dT*dA*dT[ms]kT*kA*dA[ms]kA; antisense) [compound 1785598]
(A) 72

(Q) Name the recorded APOE RNA (% control) Cortex of the substance listed here: 1693144: 6-10-4 MOE gapmer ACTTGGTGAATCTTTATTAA, linkages soosssszzzssssszsss (eA*e[5mC]eTeT*eG*eG*dT*dG[ms]dA[ms]dA[ms]dT*d[5mC]*dT*dT*dT*dA[ms]eT*eT*eA*eA) [compound 1693144]
(A) 65

----------
- System: human APOE RNA
- EXPERIMENTAL PROTOCOL: Dose-dependent inhibition of human APOE RNA in HepG2 cells, electroporation, 50,000 cells per well, RT-PCR normalized to GAPDH (Example 4, Tables 8-10)
- Format: cell-based
- RUN CONDITIONS: HepG2, electroporation, 24-hour treatment
- Procedure: Modified oligonucleotides selected from the examples above were tested at various doses in HepG2 cells. The modified oligonucleotides were tested in a series of experiments that had the same culture conditions. Each experiment is identified in separate tables below. HepG2 cells plated at a density of 50,000 cells per well were treated by electroporation with various concentrations of modified oligonucleotide as specified in the tables below. […]
Strand notation (5' to 3'): a small letter for the sugar, then the base; units joined by * are phosphorothioate-linked, units joined directly phosphodiester-linked; [ ] holds rarer units or linkages, { } end groups; capitals alone tell only the bases. [ms] = mesyl phosphoramidate linkage; k = constrained ethyl (cEt); [5mC] = 5-methylcytosine; d = 2'-deoxy (DNA)
VALUE KIND: pIC50
Quick note: pIC50 values are minus log10 of concentrations in mol/L.

Check out these entries, answers already filled in.
SUBSTANCE	pIC50
1746801 (k[5mC]*dT[ms]dT[ms]kG*kG*dT[ms]dG[ms]dA[ms]dA[ms]dT*d[5mC]*dT*dT*dT*dA[ms]dT*kT*dA[ms]kA*kA; antisense) [Compound 1746801]	6.17
1746796 (k[5mC]*kT*dT[ms]dG[ms]kG*dT[ms]dG[ms]dA[ms]dA[ms]dT*d[5mC]*dT*dT*dT*dA[ms]dT*kT*dA[ms]kA*kA; antisense) [Compound 1746796]	5.52
1746806 (k[5mC]*kT*dT[ms]dG[ms]kG*dT[ms]dG[ms]dA[ms]dA[ms]dT*d[5mC]*dT*dT*dT*dA[ms]dT*dT[ms]kA*kA*kA; antisense) [Compound 1746806]	5.59
1746800 (k[5mC]*dT[ms]kT*dG[ms]dG[ms]kT*dG[ms]dA[ms]dA[ms]dT*d[5mC]*dT*dT*dT*dA[ms]dT*kT*dA[ms]kA*kA; antisense) [Compound 1746800]	5.49

Let us examine a further case.
(Q) Name the recorded pIC50 of the substance listed here: 1746805 (k[5mC]*kT*dT[ms]kG*dG[ms]dT[ms]dG[ms]dA[ms]dA[ms]dT*d[5mC]*dT*dT*dT*dA[ms]dT*dT[ms]kA*kA*kA; antisense) [Compound 1746805]
(A) 5.87
